# experiment: chemical genetic growth profiling, strain panel (AID 1159580);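 also: tested at 20 µM; growth read once vehicle control cultures reached saturation at 30 °C; 1 = growth at the plate median or of vehicle wells; lower values mean less growth of the strain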
# test settings: S. cerevisiae deletion strains, growth OD, locus YDR162C, strain NBP2, active compounds read low
The whole screen tested about 5,500 compounds, of which about 2,000 (36%) were called active. Another 18% or so got no clear call; they are omitted. This is one part of the list.
property: normalized growth
Reply: number alone, nothing else.

Given `CC(=O)Oc1cc(OC(C)=O)c2c(c1)O[C@H](c1ccc(OC(C)=O)c(OC(C)=O)c1)[C@H](OC(C)=O)C2` , state its recorded normalized growth.
1

Can you share its normalized growth? I mean this molecule: COc1ccc(C(CN(C)C)C2(O)CCCCC2)cc1 (centres undefined)
0.985

Recorded normalized growth for `C[C@@H]1O[C@@H](O[C@H]2[C@H](Oc3cc(O)c4c(=O)cc(-c5ccc(O)cc5)oc4c3)O[C@H](CO)[C@@H](O)[C@@H]2O)[C@H](O)[C@H](O)[C@H]1O` , please?
1.01

Requested read-out: normalized growth. Entry: `COc1ccc(C(c2ccc(OC)cc2)C(Cl)(Cl)Cl)cc1`
1.01

====

# experiment: chemical genetic growth profiling, strain panel (AID 1159580);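 also: tested at 20 µM; growth read once vehicle control cultures reached saturation at 30 °C; 1 = growth at the plate median or of vehicle wells; lower values mean less growth of the strain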
# test settings: S. cerevisiae deletion strains, growth OD, locus YLR113W, strain HOG1
Screen size: about 5,500 compounds; about 2,000 (36%) were called active. About 18% were inconclusive and are not listed. Cut-off read from the data, not from the text of the source: active = normalized growth mostly below about 0.91 (no sharp cut-off); inconclusive = no clear call, values can overlap the other calls; inactive = mostly above about 0.92. The list shows a part of the results.
Log the outcome using a class from 1 = active, 0 = inactive

Some solved entries appear below for comparison.
[[record]]
compound = "C=C[C@@](C)(O)CCC1C(=C)C[C@H](OC(C)=O)C2C(C)(C)CCCC12C (stereo partly specified)"
qualitative_label = 0

[[record]]
compound = "CCCCCCCCCCCCCc1ccco1"
qualitative_label = 0

[[record]]
compound = "C=C[C@@](C)(O)CCC1C(=C)C[C@H](O)C2C(C)(C)CCCC12C (stereo partly specified)"
qualitative_label = 0


Dear all, I need the recorded test outcome for Cc1ccccc1C(OCCN(C)C)c1ccccc1 (stereo unspecified) , thank you.
0

Outcome logged for OCC(O)CN1CCN(c2ccccc2)CC1 (stereo unspecified) in this assay:
0

Returns: the outcome recorded for `Cc1cc(C(=O)NNS(=O)(=O)c2ccc(F)c(Cl)c2)nn1-c1c(Cl)cc(Cl)cc1Cl` in this assay.
0

Given `O=C(O)CCCc1ccc(N(CCCl)CCCl)cc1` , state the outcome it received in this test.
1

Dear colleague, could you share the recorded outcome for `CN1CCC(OC(c2ccccc2)c2ccccc2)CC1` when you have a moment?
0

Can you look up the reported call for `Oc1c(Cl)cc(Cl)cc1C=Nc1nc(-c2ccc3ccccc3c2)cs1` for me?
1

For this compound, state the assay outcome: `O=C(Oc1cc(O)cc2c1C[C@@H](OC(=O)c1cc(O)c(O)c(O)c1)[C@@H](c1cc(O)c(O)c(O)c1)O2)c1cc(O)c(O)c(O)c1`
0

Call for entry `N[C@@H](Cc1ccc(N(CCCl)CCCl)cc1)C(=O)O` :
0

Returns: the outcome recorded for CN(C)CCOC(c1ccc(Cl)cc1)c1ccccn1 (stereo unspecified) in this assay.
0

What classification did `CC[C@@]1(O)C[C@H](O[C@H]2C[C@H](N(C)C)[C@H](O)[C@H](C)O2)c2c(cc3c(c2O)C(=O)c2c(O)ccc(O)c2C3=O)[C@H]1C(=O)OC` end up with in this test?
0

What outcome does the record of this test show for `COc1ccc2c(c1)OC/C(=C\c1ccc(OC)c(O)c1)C2=O` ?
0

Would you mind telling me which call this test gave `O=C(Oc1cccc2[nH]ccc12)c1ccc(C(F)(F)F)cc1` ?
1

What did the test return for `O=C(O)CCCc1ccccc1` ?
1

Recorded test call requested for `O=C(O[C@@H]1Cc2c(O)cc(O)cc2O[C@@H]1c1cc(O)c(O)c(O)c1)c1cc(O)c(O)c(O)c1`
0

Which outcome was assigned to `CCCN(CCC)C(=S)NC(=O)c1cccc([N+](=O)[O-])c1` in this test?
0

Any idea what this test logged for `COc1ccc2c(c1)OC/C(=C/c1ccc(OC)c(OC)c1)C2=O` ?
0

Lab log entry: `O=C(O[C@@H]1Cc2c(O)cc(O)cc2O[C@@H]1c1ccc(O)c(O)c1)c1cc(O)c(O)c(O)c1` — outcome as called in the assay?
0

Dear all, I need the recorded test outcome for `CC(=O)Oc1cc(OC(C)=O)c2c(c1)O[C@H](c1ccc(OC(C)=O)c(OC(C)=O)c1)[C@H](OC(C)=O)C2` , thank you.
0
